meta.source: patent US20220025023A1

measured-target: T1, TP-25 peptide (human, also: biotinylated, site not given here)
T1 construct: 15-mer of human TDP-43 from the library spanning aa 199-285; captured on streptavidin plates
T1 peptide: VMDVFIPKPFRAFAF
method-summary: indirect ELISA, biotinylated 15-mer peptide on streptavidin plate, hybridoma supernatant
Where no end group is shown, it is not given here.
measured-quantity: OD

{"binder": "ACI-7062-412A7-Ab1 (antibody, IgG2b, V domains shown, also called 412A7B7; clone 9) VH: DVQLVESGGGLVQPGGSRRLSCAASGFTFSSFGMHWVRQAPEKGLEWVAYIRSGSDIIYYADSVKGRFTISRDNPENTLFLQMTSLRSEDTAMYYCARSGTTVPFDYWGQGTSLTVSS VL: DIVMTQSPSSLAMSVGQKVTMSCKSSQSLLNSGNQKNYLAWYQQKPGQSPELLLYFASTRASGVPDRFIGSGSGTDFTLTISSVQAEDLADYFCQQHYSIPLTFGAGTKLELKR", "OD": "1.4 O.D. (405 nm)"}

Record ACI-7062-412E12-Ab1 (antibody, IgG1, V domains shown, also called 412E12A2; clone 10) VH: DVQLVESGGGLVQPGGSRRLSCAASGFTFSRFGMHWVRQAPEKGLEWVAYIRSGSDIIYYADSVKGRFTISRDNPENTLFLQMTSLRSEDTAMYYCARSGTTVPFDYWGQGTSLTVSS VL: DIVMTQSPSSLAMSVGQKVTMSCKSSQSLLNSGDQKNYLAWYQQKPGQSPELLLYFASTRASGVPDRFIGSGSGTDFSLTISSVQAEDLADYFCQQHYSIPLTFGAGTKLELKR . Reported OD: 1.2 O.D. (405 nm)
